Test system: ACHN
procedure-details: NCI tumour cell line growth inhibition, 48 h
Activity calls are given as the source filed them. Rule as the data show it: active = GI50 up to about 1.1 µM and inactive = higher.
# reported GI50; entries follow

Use these answered entries as a reference point.
COC(=O)c1ccc(CS(=O)(=O)c2ccccc2)cc1: > 100 µM (inactive)
COC(=O)/C=C1\C(=O)N(C(C)=O)c2ccc(Br)cc21: 11.6 µM (inactive)
COC(=O)C(Cc1nc2ccc(Cl)cc2nc1O)/C(=N/NC(N)=O)C(=O)Nc1ccc(Cl)cc1 (stereo unspecified): > 100 µM (inactive)
COc1ccc(Cn2c(=O)c(OS(=O)(=O)C(F)(F)F)c(C)c3cc4ccccc4cc32)cc1: > 100 µM (inactive)
COC(=O)N/N=C(/CC1(O)C(=O)Nc2ccc([N+](=O)[O-])cc21)c1ccccc1 (stereo unspecified): 33.3 µM (inactive)

Entry under test: O=C(/C=C1\Nc2ccccc2N=C1NC12CC3CC(CC(C3)C1)C2)c1ccc(Br)cc1 . Its GI50 was > 10 µM (inactive)

Recorded result, FC(F)(Sc1ccccc1)c1nc2ccccc2o1 , GI50: 47.4 µM (inactive)

GI50 recorded for this compound, Nc1nnc(N)n1N , is > 100 µM (inactive)

Cc1csc(NCc2ccc(Cl)cc2)n1 has a reported GI50 of 70.1 µM (inactive)

Value of measured GI50 for the entry C1=N\CCNCC/N=C\c2ccc(cc2)OCc2cccc(n2)COc2ccc/1cc2 : 29.7 µM (inactive)

So for NC1=NCC(CN2CCOCC2)O1 (stereo unspecified) , the logged GI50 turned out to be > 100 µM (inactive)
